Target or system Urease (Canavalia ensiformis, UniProt P07374); recorded quantity pIC50.
Here pIC50 is given on a logarithmic scale as minus log10 of the concentration in mol/L.

Look over these answered cases.
O=c1oc2ccccc2c(O)c1C(c1cccc(O)c1)c1c(O)c2ccccc2oc1=O :: 4.14
O=c1c(C(c2ccc(O)cc2)c2c(O)oc3ccccc3c2=O)c(O)oc2ccccc12 :: 4.13
Nc1cccc(C(c2c(O)c3ccccc3oc2=O)c2c(O)c3ccccc3oc2=O)c1 :: 4.12
O=c1oc2ccccc2c(O)c1C(c1cccnc1)c1c(O)c2ccccc2oc1=O :: 4.45
O=c1oc2ccccc2c(O)c1C(c1cccc(Cl)c1)c1c(O)c2ccccc2oc1=O :: 4.13
CC(C)c1ccc(C(c2c(O)oc3ccccc3c2=O)c2c(O)oc3ccccc3c2=O)cc1 :: 4.08
CCCCCC(c1c(O)c2ccccc2oc1=O)c1c(O)c2ccccc2oc1=O :: 4.06
COc1ccc(C(c2c(O)c3ccccc3oc2=O)c2c(O)c3ccccc3oc2=O)cc1OC :: 4.10
CCCC(c1c(O)c2ccccc2oc1=O)c1c(O)c2ccccc2oc1=O :: 4.17
O=c1oc2ccccc2c(O)c1C(c1cccc([N+](=O)[O-])c1)c1c(O)c2ccccc2oc1=O :: 4.09

## Input Provide only the value of recorded pIC50 for C/C=C/C(c1c(O)c2ccccc2oc1=O)c1c(O)c2ccccc2oc1=O
## Output 4.36

## Input Provide only the value of recorded pIC50 for O=c1oc2ccccc2c(O)c1C(c1ccc[nH]1)c1c(O)c2ccccc2oc1=O
## Output 4.33

## Input Provide only the value of recorded pIC50 for CCOc1cc(C(c2c(O)c3ccccc3oc2=O)c2c(O)c3ccccc3oc2=O)ccc1O
## Output 4.04
